Test system: 843782-103-R-J1-PDC complex spheroid viability;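 further: viability read after seven days of compound exposure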
Experiment: Anticancer human tumor 843782-103-R-J1-PDC patient-derived lung adenocarcinoma cell line growth inhibition [RAS]
Details: curve of first compound; second compound 0.0316 µM
Excerpt: RAS pathway inhibitors in Combinations in Complex Spheroids A high-throughput screen of multi-cell type tumor spheroids was designed to identify active combinations of RAS pathway inhibitors and targeted small molecules. Complex spheroids include a stromal component modeled by human endothelial cells (HUVEC) and fibroblasts modeled by human mesenchymal stem cells (MSCs). […] Compounds. […] If the clinical Cmax for an agent had not been determined, the highest concentration tested was 10 microM. […]
property: pIC50
When answering, recall that pIC50 equals minus log10 of the concentration in mol/L, and write that number alone.

Guide cases for pIC50, answers given:
compound	pIC50
O=C(c1ccc(F)c(F)c1Nc1ccc(I)cc1F)N1CC(O)([C@@H]2CCCCN2)C1 + C#Cc1c(F)ccc2cc(O)cc(-c3ncc4c(N5CC6CCC(C5)N6)nc(OCC56CCCN5CC(F)C6)nc4c3F)c12	6.54
CCC(CC)c1cc(NC2CCC(N)C2)n2nccc2n1 (stereo not given) + C#Cc1c(F)ccc2cc(O)cc(-c3ncc4c(N5CC6CCC(C5)N6)nc(OCC56CCCN5CC(F)C6)nc4c3F)c12	5.73
Cc1nc(N2CCC3(CC2)COC(C)C3N)c(CO)nc1Sc1ccnc(N)c1Cl (stereo not given) + C=CC(=O)N1CCN(c2nc(OCC3CCCN3C)nc3c(F)c(-c4nc(N)cc(C)c4C(F)(F)F)c(Cl)cc23)C(C)C1	6.70
CCC(CC)c1cc(NC2CCC(N)C2)n2nccc2n1 (stereo not given) + C=CC(=O)N1CCN(c2nc(OCC3CCCN3C)nc3c(F)c(-c4nc(N)cc(C)c4C(F)(F)F)c(Cl)cc23)C(C)C1	5.85

Kindly consider the entry below.
Notebook: O=C(c1ccc(F)c(F)c1Nc1ccc(I)cc1F)N1CC(O)([C@@H]2CCCCN2)C1 + C=CC(=O)N1CCN(c2nc(OCC3CCCN3C)nc3c(F)c(-c4nc(N)cc(C)c4C(F)(F)F)c(Cl)cc23)C(C)C1 , pIC50 read as 6.88
